These data points were gathered from paper PMC8041284.

Listed here: items and their measured inhibition at 10 µM.
# subject-of-test: BTK (Homo sapiens, UniProt Q06187)
# Sequence (Q06187 402-655 limits assumed): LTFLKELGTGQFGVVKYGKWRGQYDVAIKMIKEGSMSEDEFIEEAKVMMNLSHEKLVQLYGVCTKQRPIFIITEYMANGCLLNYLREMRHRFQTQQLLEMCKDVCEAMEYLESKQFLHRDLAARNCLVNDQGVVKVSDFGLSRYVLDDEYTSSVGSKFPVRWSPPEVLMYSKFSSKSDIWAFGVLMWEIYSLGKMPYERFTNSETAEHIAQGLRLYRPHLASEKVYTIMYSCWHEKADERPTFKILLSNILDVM
# assay: biochemical
# condition-summary: read-out: BTK inhibition (%), 0.75 uM BTK, […] probe 3l, 15 min preincubation
Enter your answer as a number in %; do not include the unit.

Solved cases (4 shown):
[[record]]
compound = "N#Cc1cccc(-c2c[nH]c3ncnc(N4CCOCC4)c23)c1 [PCM-0215613]"
test_value = -8.3

[[record]]
compound = "Cc1ccc(O)c(O)c1 [PCM-0216565]"
test_value = 6.2

[[record]]
compound = "NCCCC[C@@H]1NC(=O)[C@@H](Cc2ccccc2)NC(=O)[C@H](CC(=O)O)NC(=O)CNC(=O)[C@H](CCCN=C(N)N)NC1=O [PCM-0215471]"
test_value = -10

[[record]]
compound = "O=C(CCCCCCC(=O)Nc1ccccc1)NO [PCM-0086223]"
test_value = -9


# context switch: different compound, same inhibition at 10 µM
stdin: Would you kindly share the measured inhibition at 10 µM for CCCCC(=O)N(Cc1ccc(-c2ccccc2-c2nn[nH]n2)cc1)[C@H](C(=O)O)C(C)C [PCM-0090417] ?
stdout: -27.2
